- Condition Set: 308.15 K; 101.33 kPa; Liquid; Vibrating tube method
Collected mass density values appear next to each entry.
# number only, unit kg/m3 dropped from output

Molecule	mass density [kg/m3]
CCCCn1cc[n+](C)c1.N#CN=C=[N-] [1-butyl-3-methylimidazolium dicyanamide]	1053.81

What does the record list as mass density for CC(C)O ?
772.6

Moving on to CCCCO
798.06

Moving on to CCC(C)O (stereo unspecified)
793.92

Moving on to CCCCCO
803.53

Moving on to CCCO
791.79

* * *

- Condition Set: 308.15 K; 101.33 kPa; Liquid; Sing-around technique in a fixed-path interferometer
Reported Property: speed of sound (m/s)
# number only, unit m/s dropped from output

Compound	Reported Property	Recorded Number
CC(C)O [propan-2-ol]	speed of sound	1104.8
CCCO [propan-1-ol]	speed of sound	1172.3
CCCCn1cc[n+](C)c1.N#CN=C=[N-] [1-butyl-3-methylimidazolium dicyanamide]	speed of sound	1712.6

What does the record list as speed of sound for CCCCO [butan-1-ol] ?
1206.5

Moving on to CCCCCO [pentan-1-ol]
1242.4

Moving on to CCC(C)O (stereo unspecified) [butan-2-ol]
1175.5

Value source: the NIST ThermoML archive (doi:10.1016/j.jct.2012.02.007)
